tested on: RXRa homodimer (NR concentration 180 nM); assay: PBM binding z-score (relative to random genomic background probes); higher = stronger binding; sequences stand for … in GC…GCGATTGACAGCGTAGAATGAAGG
Outcome: Fulfilled for PBM binding z-score of at least 0.8; Not fulfilled for anything lower.

chain	assigned.class
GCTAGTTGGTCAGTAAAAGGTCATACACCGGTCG	Fulfilled
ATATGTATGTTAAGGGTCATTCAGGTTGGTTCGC	Fulfilled
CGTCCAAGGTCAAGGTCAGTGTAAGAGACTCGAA	Fulfilled
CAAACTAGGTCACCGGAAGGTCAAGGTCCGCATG	Fulfilled
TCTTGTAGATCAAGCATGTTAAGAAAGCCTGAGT	Not fulfilled

Request: Form field: PBM binding z-score at least 0.8? Entry: `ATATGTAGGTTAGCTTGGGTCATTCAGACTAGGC`
Response: Fulfilled

Request: Form field: PBM binding z-score at least 0.8? Entry: `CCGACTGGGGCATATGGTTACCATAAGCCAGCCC`
Response: Not fulfilled

Request: Form field: PBM binding z-score at least 0.8? Entry: `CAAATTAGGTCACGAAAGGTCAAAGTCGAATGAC`
Response: Fulfilled

Request: Form field: PBM binding z-score at least 0.8? Entry: `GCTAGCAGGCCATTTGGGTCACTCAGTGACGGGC`
Response: Not fulfilled

Request: Form field: PBM binding z-score at least 0.8? Entry: `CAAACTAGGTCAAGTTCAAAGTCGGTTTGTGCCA`
Response: Fulfilled

Request: Form field: PBM binding z-score at least 0.8? Entry: `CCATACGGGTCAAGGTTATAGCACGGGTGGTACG`
Response: Fulfilled

Request: Form field: PBM binding z-score at least 0.8? Entry: `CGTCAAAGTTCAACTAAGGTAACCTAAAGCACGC`
Response: Fulfilled

Request: Form field: PBM binding z-score at least 0.8? Entry: `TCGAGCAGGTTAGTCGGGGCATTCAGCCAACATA`
Response: Not fulfilled

Request: Form field: PBM binding z-score at least 0.8? Entry: `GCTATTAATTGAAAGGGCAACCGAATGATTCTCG`
Response: Not fulfilled

Request: Form field: PBM binding z-score at least 0.8? Entry: `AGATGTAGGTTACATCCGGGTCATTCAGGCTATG`
Response: Fulfilled

Request: Form field: PBM binding z-score at least 0.8? Entry: `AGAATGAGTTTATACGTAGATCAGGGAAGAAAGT`
Response: Not fulfilled

Request: Form field: PBM binding z-score at least 0.8? Entry: `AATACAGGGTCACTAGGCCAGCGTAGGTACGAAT`
Response: Fulfilled

Request: Form field: PBM binding z-score at least 0.8? Entry: `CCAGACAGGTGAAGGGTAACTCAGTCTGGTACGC`
Response: Not fulfilled
